B1: H2-Kb / Ed5 (parent complex)
chain 1: GDSVTQTEGPVTVSESESLIINCTYSATSIAYPNLFWYVRYPGEGLQLLLKVITAGQKGSSRGFEATYNKETTSFHLQKASVQESDSAVYYCALGSYNQGKLIFGQGTKLSIKP
chain 2: DTTVKQNPRYKLARVGKPVNLICSQTMNHDTMYWYQKKPNQAPKLLLFYYDKILNREADTFEKFQSSRPNNSFCSLYIGSAGLEYSAMYLCASSRRLGASQNTLYFGAGTRLSVL
chain 3: not shown
chain 4: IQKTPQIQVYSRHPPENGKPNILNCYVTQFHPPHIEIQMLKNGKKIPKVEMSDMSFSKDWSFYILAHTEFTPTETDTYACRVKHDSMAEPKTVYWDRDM
chain 5: SIINFEKL

Variants of: B1
Experiment: % of reporter cells activated (NFAT-GFP), raw; further: test concentration or dose not given here
quantity-name: ratio to parent

Recorded results for 4 variants are shown here.
| mutation-key | quantity-name | quantitative-readout |
| --- | --- | --- |
| chain 5 I3S | ratio to parent | 0.329 |
| chain 5 L8R | ratio to parent | 0.904 |
| chain 5 S1N | ratio to parent | 0.305 |
| chain 5 S1Y | ratio to parent | 0.689 |

A. chain 5 F5T
B. chain 5 E6H
Could you tell me which of these two has the smaller ratio to parent figure? First: A Second: B Response format: the label of the selected entry.
B
(B: 0.554, A: 0.887)
